Test system: CAL-148
Method Description: normalised response (% of control), CellTiter-Glo; higher = more viable cells (100 = DMSO, 0 = benzethonium chloride kill control)
Condition Description: incubation time: 72 h
Outcome Measure: normalised response (%)
Field: numeric (%). Do not append units.

Recorded normalised response (compound CNC(=O)c1cc(Oc2ccc(NC(=O)Nc3ccc(Cl)c(C(F)(F)F)c3)cc2)ccn1 [Sorafenib] (1000 nM) ): 113

compound O=C(CCBr)N1CCN(C(=O)CCBr)CC1 [Pipobroman] (10000 nM) , normalised response observed: 101

Lab note: O=C(NC[C@H](O)CO)c1ccncc1Nc1ccc(I)cc1F [Pimasertib] (10000 nM) gave normalised response of 71.6

According to the records, this compound O=S(=O)(c1cccc2cnccc12)N1CCCNCC1 [Fasudil] (50000 nM) displays normalised response of 96.3

// normalised response lookup, compound = CS(=O)(=O)N1CCN(Cc2cc3nc(-c4cccc5[nH]ncc45)nc(N4CCOCC4)c3s2)CC1 [Pictilisib] (10000 nM) , result: 15.6

* * *

Test system: MCF-10A
Method Description: normalised response (% of control), CellTiter-Glo; higher = more viable cells (100 = DMSO, 0 = benzethonium chloride kill control)
Condition Description: incubation time: 72 h
Outcome Measure: normalised response (%)
Just the number please, in %, no unit attached.

The reported normalised response of the molecule O=C(NC[C@H](O)CO)c1ccncc1Nc1ccc(I)cc1F [Pimasertib] (100 nM) was 41.7

Value of normalised response reported for the molecule c1cc(CN2CCCNCCNCCCNCC2)ccc1CN1CCCNCCNCCCNCC1 [Plerixafor] (100 nM) is 79.7

// normalised response value for Cc1cccc(-c2nn3c(c2-c2ccnc4ccc(C(N)=O)cc24)CCC3)n1 [Galunisertib] (10 nM) : 111

normalised response recorded for this molecule, CC/C(=C(\c1ccc(O)cc1)c1ccc(OCCN(C)C)cc1)c1ccccc1 [4-hydroxytamoxifen] (100 nM) , is 106

Notebook: CC(C)N(CCCNC(=O)Nc1ccc(C(C)(C)C)cc1)C[C@H]1O[C@@H](n2cc(Br)c3c(N)ncnc32)[C@H](O)[C@@H]1O [SGC0946] (100 nM) , normalised response read as 96

The measured normalised response associated with C[C@]12O[C@H](C[C@]1(O)CO)n1c3ccccc3c3c4c(c5c6ccccc6n2c5c31)CNC4=O [Lestaurtinib] (10 nM) reads 83.7

* * *

Test system: CAL-51
Method Description: normalised viability (% of control), CellTiter-Blue; higher = more viable cells (about 100 = DMSO control)
Condition Description: 3 nM; incubation time: 72 h
Kindly state normalised viability for each of the entries shown.
Quick note: give the figure in %, leave out the unit.

Given item `O=C(NC[C@H](O)CO)c1ccncc1Nc1ccc(I)cc1F` , the value recorded as its normalised viability is 111

Value of measured normalised viability for the entry CS(=O)(=O)N1CCN(Cc2cc3nc(-c4cccc5[nH]ncc45)nc(N4CCOCC4)c3s2)CC1 [GDC-0941] : 117

Lab note: COc1cc(CCc2cc(NC(=O)c3ccc(N4CC(C)NC(C)C4)cc3)n[nH]2)cc(OC)c1 (centres undefined) [AZD4547] gave normalised viability of 107

compound CO[C@@H](C(=O)N1Cc2[nH]nc(NC(=O)c3ccc(N4CCN(C)CC4)cc3)c2C1)c1ccccc1 [Danusertib] , normalised viability observed: 116

* * *

Tested on: CAL-85-1
Method Description: normalised viability (% of control), CellTiter-Blue; higher = more viable cells (about 100 = DMSO control)
Condition Description: 10 nM; incubation time: 72 h
Kindly supply the reported normalised viability values for the records listed here.
Answer with a number only, understood to be in %.

Entry `Nc1ccccc1NC(=O)c1ccc(CNc2nccc(-c3cccnc3)n2)cc1` , normalised viability reported as 91.2

Sample `CS(=O)(=O)N1CCN(Cc2cc3nc(-c4cccc5[nH]ncc45)nc(N4CCOCC4)c3s2)CC1` ; normalised viability observed: 90.7

Memo: `COc1ccc(-c2cc3c(C)nc(N)nc3n([C@H]3CC[C@H](OCCO)CC3)c2=O)cn1` , reported normalised viability: 95.3

* * *

Test system: CAL-85-1
Method Description: normalised viability (% of control), CellTiter-Blue; higher = more viable cells (about 100 = DMSO control)
Condition Description: incubation time: 72 h
Values of normalised viability strictly less than 10% map to Condition met, and values of at least 10% map to Condition not met.

Problem: Does CS(=O)(=O)N1CCN(Cc2cc3nc(-c4cccc5[nH]ncc45)nc(N4CCOCC4)c3s2)CC1 [GDC-0941] (10000 nM) have normalised viability strictly under 10%?
Solution: Condition not met

Problem: Say whether its normalised viability is strictly beneath 10%. Entry: C[C@]12C=CC(=O)C=C1CC[C@@H]1[C@@H]2[C@@H](O)C[C@@]2(C)[C@H]1CC[C@]2(O)C(=O)CO [Prednisolone] (10000 nM)
Solution: Condition not met

Problem: Is 10% strictly greater than the compound's reported normalised viability? compound: O=C(Nc1c[nH]nc1-c1nc2ccc(CN3CCOCC3)cc2[nH]1)NC1CC1 [AT9283] (10000 nM)
Solution: Condition met

Problem: Threshold test, normalised viability < 10%: COc1cc(CCc2cc(NC(=O)c3ccc(N4CC(C)NC(C)C4)cc3)n[nH]2)cc(OC)c1 (stereo not given) [AZD4547] (1000 nM)
Solution: Condition met

Problem: For this compound, is normalised viability lower than 10%? CO[C@@H](C(=O)N1Cc2[nH]nc(NC(=O)c3ccc(N4CCN(C)CC4)cc3)c2C1)c1ccccc1 [Danusertib] (10000 nM)
Solution: Condition not met

* * *

Test system: SK-BR-3
Method Description: drug sensitivity score (DSS), CellTiter-Blue viability (DSS (AUC-based score)); higher = stronger viability inhibition; extreme values may be limits of the assay
Condition Description: incubation time: 72 h
Outcome Measure: drug sensitivity score
Write the number on its own, no unit after it.

// recorded drug sensitivity score for `C[C@]12C=CC(=O)C=C1CC[C@@H]1[C@@H]2[C@@H](O)C[C@@]2(C)[C@H]1CC[C@]2(O)C(=O)CO` : 0

Reported drug sensitivity score for `CNC(=O)c1cc(Oc2ccc(NC(=O)Nc3ccc(Cl)c(C(F)(F)F)c3)cc2)ccn1` was 0

Briefly, drug sensitivity score measured for Nc1cccc2c1CN(C1CCC(=O)NC1=O)C2=O (configuration not stated) [Lenalidomide] : 0

The recorded drug sensitivity score for `c1cc(CN2CCCNCCNCCCNCC2)ccc1CN1CCCNCCNCCCNCC1` is 0

# drug sensitivity score of `O=C(NC[C@H](O)CO)c1ccncc1Nc1ccc(I)cc1F` = 0

Reported drug sensitivity score of `COc1ccc(-c2cc3c(C)nc(N)nc3n([C@H]3CC[C@H](OCCO)CC3)c2=O)cn1` : 24.9

The molecule listed as `O=C1c2c(O)ccc(O)c2C(=O)c2c(NCCNCCO)ccc(NCCNCCO)c21` has a reported drug sensitivity score of 15.3

* * *

System: MDA-MB-231
Method Description: drug sensitivity score (DSS), CellTiter-Blue viability (DSS (AUC-based score)); higher = stronger viability inhibition; extreme values may be limits of the assay
Condition Description: incubation time: 72 h
Outcome Measure: drug sensitivity score
// response body must contain only the number

Data point: `Cc1cccc(-c2nn3c(c2-c2ccnc4ccc(C(N)=O)cc24)CCC3)n1` ; drug sensitivity score = 0

Item: `CCN(CC)CCNC(=O)c1c(C)[nH]c(/C=C2\C(=O)Nc3ccc(F)cc32)c1C` | drug sensitivity score: 0

Recorded drug sensitivity score (compound `O=C1c2c(O)ccc(O)c2C(=O)c2c(NCCNCCO)ccc(NCCNCCO)c21` ): 11.8

Recorded result, `CC[C@@]1(O)C(=O)OCc2c1cc1n(c2=O)Cc2cc3c(CN(C)C)c(O)ccc3nc2-1` , drug sensitivity score: 3.58

The reported value for `C[C@]12C=CC(=O)C=C1CC[C@@H]1[C@@H]2[C@@H](O)C[C@@]2(C)[C@H]1CC[C@]2(O)C(=O)CO` in terms of drug sensitivity score is 0

Quick note, drug sensitivity score for `CS(=O)(=O)N1CCN(Cc2cc3nc(-c4cccc5[nH]ncc45)nc(N4CCOCC4)c3s2)CC1` landed at 8.4

Reported drug sensitivity score for COc1cc(CCc2cc(NC(=O)c3ccc(N4CC(C)NC(C)C4)cc3)n[nH]2)cc(OC)c1 (centres undefined) was 0

drug sensitivity score reading for Nc1nc(=O)c2c([nH]1)NCC(CNc1ccc(C(=O)N[C@@H](CCC(=O)O)C(=O)O)cc1)N2C=O (mixture of isomers) : 0

Query `c1cc(CN2CCCNCCNCCCNCC2)ccc1CN1CCCNCCNCCCNCC1` yields drug sensitivity score of 0

* * *

System: BT-549
Method Description: normalised response (% of control), CellTiter-Glo; higher = more viable cells (100 = DMSO, 0 = benzethonium chloride kill control)
Condition Description: incubation time: 72 h
Outcome Measure: normalised response (%)
Provide only the numeric value, understood in %.

Form: item CCC/C=C/C=C/C(=O)O[C@H]1/C(=C/C(=O)OC)C[C@H]2C[C@H]([C@@H](C)O)OC(=O)C[C@H](O)C[C@@H]3C[C@H](OC(C)=O)C(C)(C)[C@](O)(C[C@@H]4C/C(=C/C(=O)OC)C[C@H](/C=C/C(C)(C)[C@]1(O)O2)O4)O3 [Bryostatin 1] (1 nM) ; test system BT-549; normalised response: 101

Record C[C@]12C=CC(=O)C=C1CC[C@@H]1[C@@H]2[C@@H](O)C[C@@]2(C)[C@H]1CC[C@]2(O)C(=O)CO [Prednisolone] (100 nM) has BT-549 normalised response equal to 96

Tested on BT-549, the item O=S(=O)(c1cccc2cnccc12)N1CCCNCC1 [Fasudil] (500 nM) showed normalised response equal to 101

// normalised response (BT-549) for Cc1c(CN2CCN(C(=O)[C@H](C)O)CC2)sc2c(N3CCOCC3)nc(-c3cnc(N)nc3)nc12 [GDC-0980] (100 nM) = 90.1

# credit: the supplement of paper PMC4862054
